Molecular target: Cannabinoid receptor 1 (Homo sapiens)
Sequence (P21554 whole entry): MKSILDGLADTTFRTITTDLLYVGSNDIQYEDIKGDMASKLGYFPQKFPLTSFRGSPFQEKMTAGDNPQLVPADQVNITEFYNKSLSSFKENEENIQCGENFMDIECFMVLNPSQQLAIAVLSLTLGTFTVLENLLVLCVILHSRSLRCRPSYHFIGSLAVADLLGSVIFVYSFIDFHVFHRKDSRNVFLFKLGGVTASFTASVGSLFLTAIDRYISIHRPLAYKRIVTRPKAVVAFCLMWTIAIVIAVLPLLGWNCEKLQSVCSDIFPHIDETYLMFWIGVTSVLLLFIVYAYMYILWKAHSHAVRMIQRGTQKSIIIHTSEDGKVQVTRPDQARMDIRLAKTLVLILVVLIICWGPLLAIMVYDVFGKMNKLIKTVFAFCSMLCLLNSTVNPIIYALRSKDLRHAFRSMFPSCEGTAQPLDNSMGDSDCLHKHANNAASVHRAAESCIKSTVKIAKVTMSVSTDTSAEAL
Experiment: Agonist activity at human CB1 receptor expressed in mouse AtT20 cells by FLIPR assay
pEC50: −log10 of the molar value.

structureSmiles: CC(C)(NC(=O)c1nn(CCCCCF)c2ccccc12)c1ccccc1
pEC50: 9.37

structureSmiles: CC(C)(NC(=O)c1cn(CCCCCF)c2ncccc12)c1ccccc1
pEC50: 8.33

structureSmiles: CC(C)(NC(=O)c1cn(CCCCCF)c2ccccc12)c1ccccc1
pEC50: 8.55

----------
Molecular target: Cyclin-G-associated kinase (Homo sapiens)
Sequence (O14976 whole entry): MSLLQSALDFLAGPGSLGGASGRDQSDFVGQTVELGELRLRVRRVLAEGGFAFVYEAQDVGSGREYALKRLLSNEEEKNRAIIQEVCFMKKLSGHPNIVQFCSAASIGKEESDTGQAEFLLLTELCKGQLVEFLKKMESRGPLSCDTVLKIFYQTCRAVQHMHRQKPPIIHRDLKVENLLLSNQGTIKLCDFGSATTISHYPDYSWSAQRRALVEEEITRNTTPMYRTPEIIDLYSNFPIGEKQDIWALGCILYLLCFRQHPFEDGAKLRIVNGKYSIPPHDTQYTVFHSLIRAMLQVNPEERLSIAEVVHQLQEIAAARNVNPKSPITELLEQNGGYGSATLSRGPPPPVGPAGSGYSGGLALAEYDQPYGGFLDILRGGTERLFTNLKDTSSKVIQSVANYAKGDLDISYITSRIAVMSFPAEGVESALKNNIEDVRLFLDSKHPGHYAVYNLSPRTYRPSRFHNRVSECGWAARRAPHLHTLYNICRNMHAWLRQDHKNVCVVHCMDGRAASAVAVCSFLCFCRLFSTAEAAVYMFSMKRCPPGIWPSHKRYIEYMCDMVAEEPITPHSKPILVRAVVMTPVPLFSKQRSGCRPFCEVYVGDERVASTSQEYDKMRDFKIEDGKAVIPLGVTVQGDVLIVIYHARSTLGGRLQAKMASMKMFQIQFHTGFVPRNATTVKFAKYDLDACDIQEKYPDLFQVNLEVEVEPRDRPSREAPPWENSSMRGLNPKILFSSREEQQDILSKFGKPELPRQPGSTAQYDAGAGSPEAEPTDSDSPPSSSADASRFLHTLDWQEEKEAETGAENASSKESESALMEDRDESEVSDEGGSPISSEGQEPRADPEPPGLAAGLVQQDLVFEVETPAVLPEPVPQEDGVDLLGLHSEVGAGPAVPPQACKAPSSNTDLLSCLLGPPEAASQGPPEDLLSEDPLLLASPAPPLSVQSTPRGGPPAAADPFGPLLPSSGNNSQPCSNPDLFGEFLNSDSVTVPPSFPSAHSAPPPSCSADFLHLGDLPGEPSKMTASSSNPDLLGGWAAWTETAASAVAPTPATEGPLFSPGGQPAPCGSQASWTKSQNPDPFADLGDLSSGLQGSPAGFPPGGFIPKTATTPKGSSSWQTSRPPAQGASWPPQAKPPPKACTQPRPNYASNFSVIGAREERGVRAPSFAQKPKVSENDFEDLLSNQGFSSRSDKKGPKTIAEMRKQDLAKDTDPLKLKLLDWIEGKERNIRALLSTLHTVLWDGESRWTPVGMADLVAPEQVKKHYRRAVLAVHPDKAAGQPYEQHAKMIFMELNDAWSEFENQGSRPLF

structureSmiles: COc1ccc(-c2cnc3c(c2)nnn3-c2ccccc2)cc1OC
measuredOn: Cyclin-G-associated kinase (Homo sapiens)
Kd: > 30 µM
